study-target: thrombin receptor (PAR-1) (Homo sapiens, UniProt P25116)
Construct: CHRF membranes (Jones, Biochim. Biophys. Acta 1992, 1136, 272) are thawed from −70° C; endogenous in cells
Sequence (P25116 22-425): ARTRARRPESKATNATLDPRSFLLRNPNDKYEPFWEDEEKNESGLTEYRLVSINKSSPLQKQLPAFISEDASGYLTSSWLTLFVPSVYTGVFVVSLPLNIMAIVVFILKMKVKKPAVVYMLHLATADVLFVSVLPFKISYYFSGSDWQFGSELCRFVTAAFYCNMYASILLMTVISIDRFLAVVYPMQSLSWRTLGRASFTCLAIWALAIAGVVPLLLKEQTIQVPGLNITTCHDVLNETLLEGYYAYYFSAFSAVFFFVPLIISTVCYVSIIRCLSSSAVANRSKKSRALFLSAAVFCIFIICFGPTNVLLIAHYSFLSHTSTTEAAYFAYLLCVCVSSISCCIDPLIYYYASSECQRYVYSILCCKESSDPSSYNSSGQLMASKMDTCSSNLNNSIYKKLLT
test-summary: In vitro thrombin receptor binding assay (CHRF membranes)
reported-conditions: tritiated 721-40 radioligand, read-out: Bndg IC50 (Thrombin receptor binding)
Kindly state pIC50 for each of the entries shown.
Quick note: pIC50 means taking -log10 of the concentration in moles per liter.

Ask: Field: pIC50 (thrombin receptor (PAR-1) (Homo sapiens, UniProt P25116)). Entry: CC(C)[C@H](NC(=O)[C@H](Cc1ccc(Cl)cc1)NC(=O)Nc1ccc2c(CN3CCCC3)cn(Cc3c(Cl)cccc3Cl)c2c1)C(=O)NCCN
Reply: 6.85

Ask: Query for thrombin receptor (PAR-1) (Homo sapiens, UniProt P25116): what pIC50 does the record show for NCCC[C@H](NC(=O)[C@H](Cc1ccc(Cl)cc1)NC(=O)Nc1ccc2c(CN3CCCC3)cn(Cc3c(Cl)cccc3Cl)c2c1)C(=O)NCc1ccccc1Cl ?
Reply: 5.85

Ask: Please provide the recorded pIC50 for O=C(Nc1ccc2c(CN3CCCC3)cn(Cc3c(Cl)cccc3Cl)c2c1)N[C@@H](Cc1ccc(F)c(F)c1)C(=O)N[C@@H](Cc1c[nH]cn1)C(=O)NCc1ccccc1 , tested on thrombin receptor (PAR-1) (Homo sapiens, UniProt P25116).
Reply: 5.89

* * *

Answer each item with its documented IC50.
System: gel-filtered platelets
test-summary: In vitro inhibition of thrombin-induced gel-filtered platelet aggregation
Format: cell-based
reported-conditions: Platelet; human gel-filtered platelets; agonist thrombin 50 μL of 1 unit/mL; read-out: Thrmb IC50 (Thrombin-induced aggregation of gel-filtered platelets)

Ask: Report IC50 for C=CCN(C)Cc1cn(Cc2c(Cl)cccc2Cl)c2cc(NC(=O)N[C@@H](Cc3cccc(F)c3)C(=O)N[C@@H](CCCN)C(=O)NC3Cc4ccccc4C3)ccc12 [Compound 97] please.
Reply: 18.8 µM

Ask: Look up IC50: COc1ccc(C[C@H](NC(=O)Nc2ccc3c(CN4CCCC4)cn(Cc4cccc(C)c4)c3c2)C(=O)N[C@@H](CCCNC(=N)N)C(=O)NCC2CCCCC2)cc1 [Compound 9]
Reply: 2.5 µM

Ask: Fill in: IC50 of Cc1ccccc1Cn1cc(CN2CCCC2)c2ccc(NC(=O)N[C@@H](Cc3cccnc3)C(=O)N[C@@H](CCCNC(=N)N)C(=O)NCc3ccccc3)cc21 [Compound 31] is ___
Reply: > 10 µM

Ask: Recorded IC50 for CC(=O)NCCCC[C@H](NC(=O)[C@H](Cc1ccc(F)c(F)c1)NC(=O)Nc1ccc2c(CN3CCCC3)cn(Cc3c(Cl)cccc3Cl)c2c1)C(=O)NCc1ccccc1 [Compound 71] , please?
Reply: 0.55 µM

Ask: # query: IC50 of entry COc1ccc(C[C@H](NC(=O)Nc2ccc3c(CN4CCCC4)cn(Cc4ccc(S(C)(=O)=O)cc4)c3c2)C(=O)N[C@@H](CCCNC(=N)N)C(=O)NCc2ccccc2)cc1 [Compound 12]
Reply: 43.2 µM

Ask: Any idea what its IC50 is? The molecule is N=C(N)NCCC[C@H](NC(=O)[C@H](Cc1ccc(F)c(F)c1)NC(=O)Nc1ccc2c(CN3CCCC3)cn(CC3CCCCC3)c2c1)C(=O)NCc1ccccc1 [Compound 74]
Reply: 2.9 µM

Ask: For the molecule shown here, CCSC[C@H](NC(=O)[C@H](Cc1ccc(Cl)cc1)NC(=O)Nc1ccc2c(CN3CCCC3)cn(Cc3c(Cl)cccc3Cl)c2c1)C(=O)NCCN [Compound 149] , give the reported IC50.
Reply: 1.2 µM

Ask: Can you share its IC50? I mean this molecule: N=C(N)NCCC[C@H](NC(=O)[C@@H](NC(=O)Nc1ccc2c(CN3CCCC3)cn(Cc3c(Cl)cccc3Cl)c2c1)C(c1ccccc1)c1ccccc1)C(=O)NCc1ccccc1 [Compound 56]
Reply: 3.8 µM

Ask: Entry NCCNC(=O)[C@H](Cc1c[nH]cn1)NC(=O)[C@H](Cc1ccc(Cl)cc1)NC(=O)Nc1ccc2c(CN3CCCC3)cn(Cc3c(Cl)cccc3Cl)c2c1 [Compound 134] : reported IC50 = ?
Reply: 0.95 µM

Ask: Which value of IC50 has been reported for N=C(N)NCCC[C@H](NC(=O)[C@H](Cc1ccc([N+](=O)[O-])cc1)NC(=O)Nc1ccc2c(CN3CCCC3)cn(Cc3ccc(F)cc3)c2c1)C(=O)NCc1ccccc1 [Compound 49] in the records?
Reply: 6.1 µM

Ask: I am curious: what IC50 value has been reported for NCC[C@H](NC(=O)[C@H](Cc1ccc(F)c(F)c1)NC(=O)Nc1ccc2c(CN3CCSC3)cn(Cc3c(Cl)cccc3Cl)c2c1)C(=O)NCc1ccccc1 [Compound 154] ?
Reply: 12.9 µM

Ask: Using the record for NCC[C@H](NC(=O)[C@H](Cc1ccc(Cl)cc1)NC(=O)Nc1ccc2c(CN3CCCC3)cn(Cc3c(Cl)cccc3Cl)c2c1)C(=O)NCc1ccccc1 [Compound 78] , report its IC50.
Reply: 1.3 µM

Ask: Entry COc1ccc(C[C@H](NC(=O)Nc2ccc3c(CN4CCCC4)cn(Cc4ccc(Cl)cc4)c3c2)C(=O)N[C@@H](CCCNC(=N)N)C(=O)NCc2ccccc2)cc1 [Compound 19] has what IC50?
Reply: 3.2 µM

Ask: What value of measured IC50 is listed for COC[C@H]1CCCN1Cc1cn(Cc2c(Cl)cccc2Cl)c2cc(NC(=O)N[C@@H](Cc3ccc(Cl)cc3)C(=O)N[C@@H](CCCNC(=N)N)C(=O)NCc3ccccc3)ccc12 [Compound 87] ?
Reply: 1.3 µM

Ask: Any idea what its IC50 is? The molecule is COc1ccc(C[C@H](NC(=O)Nc2ccc3c(c2)c(CN2CCCCC2)cn3Cc2ccc(F)cc2)C(=O)N[C@@H](CCCNC(=N)N)C(=O)NCc2ccccc2)cc1 [Compound 162]
Reply: 13 µM

Ask: Which IC50 value is on record for CCN(CC)Cc1cn(Cc2ccc(F)cc2)c2cc(NC(=O)N[C@@H](Cc3ccc(OC)cc3)C(=O)N[C@@H](CCCNC(=N)N)C(=O)NCCCc3ccccc3)ccc12 [Compound 5] ?
Reply: 2.9 µM

Ask: Any idea what IC50 was measured for NC[C@H](NC(=O)[C@H](Cc1ccc(Cl)cc1)NC(=O)Nc1ccc2c(CN3CCCC3)cn(Cc3c(Cl)cccc3Cl)c2c1)C(=O)NCc1ccccc1 [Compound 79] ?
Reply: 1.3 µM

Ask: I'd like to know its IC50. The molecule in question is NC[C@H](NC(=O)[C@H](Cc1ccc(F)c(F)c1)NC(=O)Nc1ccc2c(CN3CCCC3)cn(Cc3c(Cl)cccc3Cl)c2c1)C(=O)NCc1ccccc1 [Compound 101]
Reply: 0.41 µM

Ask: May I ask what IC50 has been recorded for Cc1ccccc1Cn1cc(CN2CCCC2)c2ccc(NC(=O)N[C@@H](Cc3cccc4ccccc34)C(=O)N[C@@H](CCCNC(=N)N)C(=O)NCc3ccccc3)cc21 [Compound 37] ?
Reply: 4.4 µM

Ask: Consider the molecule shown here: NCCC[C@H](NC(=O)[C@H](Cc1ccc(F)c(F)c1)NC(=O)Nc1ccc2c(CN3CCCC3)cn(Cc3c(Cl)cccc3Cl)c2c1)C(=O)NCCc1ccncc1 [Compound 109] What is its recorded IC50?
Reply: 0.84 µM

Ask: Entry Cc1ccccc1Cn1cc(CN2CCCC2)c2ccc(NC(=O)N[C@@H](Cc3ccc(F)c(F)c3)C(=O)N[C@@H](CCCNC(=N)N)C(=O)NCCc3ccccc3Cl)cc21 [Compound 64] : reported IC50 = ?
Reply: 2.2 µM
